# credit: PubChem BioAssay (NCI)

System: MDA-MB-435 melanoma
Assay: NCI-60 one-dose screen, 48 h (100 = growth as untreated, 0 = no growth, -100 = all killed)
Settings: 10 µM unless noted
About 83,000 compounds went through this panel and 20% of them were active in at least one assay; those are over-represented in the sample as a whole.
Label scheme for growth: lower than 90% is N, 90% and above is Y.

*Q* Reported growth reaches at least 90% for CC1(C)CC(=O)C2=C(C1)Oc1nc(N)c(C#N)c(N)c1C2c1ccc(F)cc1 (stereo unspecified) ?
*A* Y

*Q* Also need "Cc1ncc(C(=O)Nc2ccc(CN3CCN(C)CC3)c(C(F)(F)F)c2)cc1C#Cc1c(N)ncc2ccccc12" , thanks.
*A* N

*Q* Also need "CCOC(=O)CSSCC(=O)OCC" , thanks.
*A* Y

*Q* Also need "CC(C)(C)c1cc(C[P+](c2ccc(Cl)cc2)(c2ccc(Cl)cc2)c2ccc(Cl)cc2)cc(C(C)(C)C)c1O" , thanks.
*A* N

* * *

Test system: T-47D breast
Assay: NCI-60 one-dose screen, 48 h (100 = growth as untreated, 0 = no growth, -100 = all killed)
Conditions: 10 µM unless noted
This is part of a sample that, as a whole, favours compounds with a hit. Of some 83,000 tested, about 20% had one in any assay.
Hi there, I'd appreciate the recorded growth for every entry that follows.
Numbers only, in %.

Use these answered entries as a reference point.
C[n+]1c2ccccc2c(Nc2ccc(NS(=O)(=O)CCCCN=C(N)N)cc2)c2ccc(N)cc21 | 21.9
CCCC(CCC)Oc1ccc(CCCC2=C(O)c3ccccc3C(=O)C2=O)cc1 | 65.4

Record growth per entry; entries follow.
1. C/C=C/C/C=C/[C@H](C)C[C@H](O)[C@@H]1C[C@@H]2O[C@H]2/C=C/[C@H](O)[C@@H](O)/C=C/C[C@H](C)CC(=O)O1
2. CC[N+](C)(C)N
3. O=C(CN1C(=O)NC(c2ccccc2)(c2ccccc2)C1=O)c1ccc(N2CCCC2)cc1
4. COc1ccc(-c2cc(C#N)c(NNC(C)=O)[nH]2)cc1
5. O=C(CCCC(=O)Nc1ccc(Cn2nnc3cc(Cl)c(Cl)cc32)cc1)Nc1ccc(CN2N=NC3C=C(Cl)C(Cl)=CC32)cc1 (stereo not given)
6. CCOc1ccccc1/C=N\N=C(N/N=C/c1ccccc1OCC)N/N=C/c1ccccc1OCC
7. COc1ccc(-c2nc(SCC(C)C)nc(Nc3ccc([N+](=O)[O-])cc3)c2C#N)cc1
8. Nc1ncn([C@@H]2O[C@H](CO)[C@@H](O)C2(F)F)c(=O)n1

*A*
1: 69.9; 2: 103; 3: 81.2; 4: 165; 5: 49; 6: 16.1; 7: 92.6; 8: 76.2

* * *

System: TK-10 renal
Assay: NCI-60 one-dose screen, 48 h
Details: 10 µM unless noted
This is part of a sample that, as a whole, favours compounds with a hit. Of some 83,000 tested, about 20% had one in any assay. The source made the active and inactive calls. Rule for the calls: active = growth percent below 10; inactive = the rest.
Hi! Could you answer with just one of these? true (1) = active, false (0) = inactive

For orientation, consider the following solved cases.
CCN(CC)C(=O)C1(C)CCCC2(C)c3cc(OC(C)=O)ccc3CCC12 (stereo unspecified) | false (0)
Cn1cnc2nc[nH]c2c1=S | false (0)
CC([C@H]1CCC2C3CCC4C[C@@H](N)CC[C@]4(C)C3CC[C@@]21C)N(C)C (stereo partly specified) | false (0)
CC(C)(C)c1ccc([I+]c2ccc(C(C)(C)C)cc2)cc1 | false (0)
CC(=O)/C(=C\c1c(-c2ccccc2)[nH]c2ccccc12)S(=O)(=O)c1ccccc1 | false (0)
CC1=C(C)C(=O)C(C(C)C2=C(C)C(=O)C(C)=C(C)C2=O)=C(C)C1=O | false (0)
Cc1ccc(C(C)C)c(OCc2ccc(C(=O)N/N=C/c3cccc(O)c3O)cc2)c1 | false (0)
COc1cc2c(c3c1c(=O)c1cccc(F)c1n3C)C=CC(C)(C)O2 | false (0)

*Q* Record request — test call for "C=CCN(C)C"
*A* false (0)

*Q* Also need CCC(C)[C@H](NC(=O)Nc1cc(C(F)(F)F)cc(C(F)(F)F)c1)C(=O)N[C@@H](Cc1cn(C)cn1)C(=O)OC (stereo partly specified) , thanks.
*A* true (1)

*Q* Also need "COC(=O)c1c[n+]([O-])ccc1OC" , thanks.
*A* false (0)

*Q* Also need "CCn1cnc(C[C@H](NC(=O)[C@@H](NC(=O)Nc2cc(C(F)(F)F)cc(C(F)(F)F)c2)C(C)C)C(=O)OC)c1" , thanks.
*A* true (1)

*Q* Also need "Nc1nc(-c2cccc(Br)c2)cc(-c2cc3ccccc3oc2=O)n1" , thanks.
*A* false (0)

*Q* Also need "Cn1c2ccccc2c2ccccc21" , thanks.
*A* false (0)

*Q* Also need "Oc1ccc([S+](c2ccc(O)cc2)c2ccc(O)cc2)cc1" , thanks.
*A* false (0)

*Q* Also need CC(=O)OC1/C=C\CC/C=C\C1 (stereo unspecified) , thanks.
*A* false (0)

* * *

Test system: SF-295 CNS
Test: NCI-60 one-dose screen, 48 h
Settings: 10 µM unless noted
About 83,000 compounds went through this panel and 20% of them were active in at least one assay; those are over-represented in the sample as a whole. The source made the active and inactive calls. How the source made its calls: active means growth percent below 10; inactive means the rest.
Hi! Could you answer with just one of these? yes (1) for active, no (0) for inactive

C=CN(C)S(C)(=O)=O | yes (1)

*Q* Record request — test call for "C[C@]12C=CC(=O)C=C1[C@@H](F)C[C@@H]1[C@@H]2[C@@H](O)C[C@@]2(C)[C@H]1CC[C@]2(O)C(=O)CO"
*A* no (0)

*Q* Also need "COC(=O)Nc1nc2ccc(C(=O)c3ccccc3N(C)C3COC3)cc2[nH]1" , thanks.
*A* no (0)

* * *

Tested on: SN12C renal
Assay: NCI-60 one-dose screen, 48 h (100 = growth as untreated, 0 = no growth, -100 = all killed)
Details: 10 µM unless noted
Compounds without any hit were thinned out: in the full panel of roughly 83,000, 20% have a hit.
Label scheme for growth: lower than 90% is FALSE, 90% and above is TRUE.

COc1ccc2c(c1)cn1c3ccc(O)cc3[nH]c(=O)c21 | FALSE

*Q* Reported growth reaches at least 90% for "O=C(/C=C1\C(=O)N(Cc2ccc([N+](=O)[O-])cc2)c2ccccc21)c1ccc(OCCN2CCCCC2)cc1" ?
*A* FALSE

*Q* Also need "Cc1nnc(-c2cc3c(ccc4ccccc43)oc2=O)c2cn(-c3ccc(Cl)cc3)nc12" , thanks.
*A* TRUE

*Q* Also need "CCCCCCC(=O)C(C)C" , thanks.
*A* TRUE

* * *

Tested on: MALME-3M melanoma
Experiment: NCI-60 one-dose screen, 48 h (100 = growth as untreated, 0 = no growth, -100 = all killed)
Conditions: 10 µM unless noted
Compounds without any hit were thinned out: in the full panel of roughly 83,000, 20% have a hit.
Hi there, I'd appreciate the recorded growth for every entry that follows.
One number for each entry, in %.

Use these answered entries as a reference point.
COC1(OC)N=C(N)C2(C#N)C3(C(=O)Nc4ccccc43)C12C#N (stereo unspecified) | -3.2
O=C(Cc1ccccc1[N+](=O)[O-])c1ccc2c(c1)OCO2 | 96.1
COc1ccc(-n2nnnc2-c2cn[nH]c2C(F)(F)F)cc1 | 107

Record growth per entry; entries follow.
1. COC(=O)c1ccc2[nH]c(O)c(C(=Nc3ccc(N(C)C(=O)CN4CCN(C)CC4)cc3)c3ccc4c(c3)OCO4)c2c1
2. COC(=O)c1ccc(C(=Nc2ccc(N(C)C(=O)CN3CCN(C)CC3)cc2)c2c(O)[nH]c3ccc(C(=O)OC)cc23)cc1
3. c1cc[c]([Bi]([c]2ccccc2)[c]2ccccc2)cc1

*A*
-5.19
-14.7
94

* * *

Tested on: SNB-75 CNS
Assay: NCI-60 one-dose screen, 48 h
Conditions: 10 µM unless noted
This is part of a sample that, as a whole, favours compounds with a hit. Of some 83,000 tested, about 20% had one in any assay. Active and inactive are the calls of the source. The calls were made as follows: active = growth percent below 10; inactive = the rest.
Hi! Could you answer with just one of these? active, inactive

CC(C)C(=O)c1ccc(Cl)s1 | inactive
OC(c1ccccc1)(c1ccccc1)C(F)(F)F | inactive
COc1cc([C@@H]2c3cc4c(cc3[C@H](O)[C@H]3COC[C@@H]23)OCO4)cc(OC)c1OC | inactive
O=C(N/N=C/c1ccccc1Cl)c1cccc2ccccc12 | inactive
CCCCN(CCCC)CCCNc1c2c(nc3ccc(Cl)cc13)CCCC2 | inactive

*Q* Record request — test call for "COc1ccc(Cn2cc3c(c2-c2ccccc2)CCc2cnoc2-3)cc1N"
*A* inactive

*Q* Also need "CC1(C)NCCC[C@]2(C)[C@H]3CC=C4[C@@H]5C[C@](C)(COC(=O)c6ccccc6C(=O)O)CC[C@]5(C)CC[C@@]4(C)[C@]3(C)CC[C@@H]12" , thanks.
*A* inactive

*Q* Also need "CCCCCCNC(=O)Oc1ccc(/C(=C(/C)Cc2ccc(OC)cc2)c2ccc(OCCN3CCCCC3)cc2)cc1" , thanks.
*A* inactive

*Q* Also need "CCOC(=O)NNc1[nH]c(-c2ccc(OC)cc2)cc1C#N" , thanks.
*A* inactive
